target: T1, GST-MDM2 (human MDM2 residues 17-125) (human, UniProt Q00987 17-125); assay: direct binding of the FITC-labeled peptide to MDM2
T1 construct: range 17-125; No removal of GST is reported; not shown: glutathione S-transferase (GST) tag encoded by vector pGEX-6P-2
T1 sequence (Q00987 17-125): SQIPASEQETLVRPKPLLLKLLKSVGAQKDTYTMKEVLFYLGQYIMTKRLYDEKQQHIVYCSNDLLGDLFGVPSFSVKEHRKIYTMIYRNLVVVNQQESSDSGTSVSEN
Numbered stars: 1 amine (or outer) side, 2 acyl side, 3 side chain; on linkers, the order of the positions; unused ones are H or OH. Bridge positions count the residues as written; N and C are the ends. Square brackets hold non-standard residues; d marks the D form. mXylylene = c1cc(C[*:1])cc(C[*:2])c1; hCys = N[C@@H](CCS)C(=O)O; AEEA = NCCOCCOCC(=O)O

BINDER: peptide 13, Ac-EETFCHYWCQLTS-miniPEG-K(FITC)-NH2, stapled with BBA-CPP9 (head-to-tail cyclic; D-Phe at 1, L-2-naphthylalanine at 2, D-Arg at 4 and 6; miniPEG-Lys linker, with the Lys side chain acylated by the BBA staple; N-terminal acetyl; Cys 5 and Cys 9 joined by a 3,5-dimethylbenzoyl (BBA) staple that carries CPP9; C-terminal miniPEG-Lys(FITC) amide) peptide 1: EETFCHYWCQLTS peptide 2: FXRRRRQ
UNITS TEXT: nM
Kd: 365

BINDER: Ac-LTF[hCys]HYW[hCys]QLTS-{AEEA-K(FITC)-NH2} (bridge 4-8; not fully specified (bridges), No CPP) [peptide 8, Ac-LTFhCHYWhCQLTS-miniPEG-K(FITC)-NH2, stapled]
UNITS TEXT: nM
Kd: 15

BINDER: Ac-ETFCHYWCQLTS-{AEEA-K(FITC)-NH2} (linker 4-8 via mXylylene, No CPP) [peptide 10, Ac-ETFCHYWCQLTS-miniPEG-K(FITC)-NH2, xylene-stapled]
UNITS TEXT: nM
Kd: 36

BINDER: Ac-LTFCHYWCQLTS-{AEEA-K(FITC)-NH2} (bridge 4-8; not fully specified (bridges); printed as Ac-LTFCHYWCQLTS-miniPEG-K(FITC)-NH, No CPP) [peptide 6, Ac-LTFCHYWCQLTS-miniPEG-K(FITC)-NH2, stapled]
UNITS TEXT: nM
Kd: 190

BINDER: peptide 11, Ac-ETFCHYWCQLTS-miniPEG-K(FITC)-NH2, stapled with BBA-CPP9 (head-to-tail cyclic; D-Phe at 1, L-2-naphthylalanine at 2, D-Arg at 4 and 6; miniPEG-Lys linker, with the Lys side chain acylated by the BBA staple; N-terminal acetyl; Cys 4 and Cys 8 joined by a 3,5-dimethylbenzoyl (BBA) staple that carries CPP9; C-terminal miniPEG-Lys(FITC) amide) peptide 1: ETFCHYWCQLTS peptide 2: FXRRRRQ
UNITS TEXT: nM
Kd: 225

BINDER: Ac-EETFCHYWCQLTS-{AEEA-K(FITC)-NH2} (linker 5-9 via mXylylene, No CPP) [peptide 12, Ac-EETFCHYWCQLTS-miniPEG-K(FITC)-NH2, xylene-stapled]
UNITS TEXT: nM
Kd: 187
